System: HOP-62 NSCLC
experiment summary: NCI-60 one-dose screen, 48 h (100 = growth as untreated, 0 = no growth, -100 = all killed)
recorded conditions: 10 µM unless noted
The panel holds about 83,000 compounds, 20% with a hit somewhere; the sample as a whole holds those more often.
If the reported growth equals or exceeds 60%, assign label 1. If not, assign label 0.

CCOC(=O)CSc1ncnc2c1c(-c1ccccc1)c(-c1ccccc1)n2-c1ccc(C)cc1; label 1
Cc1cc2c(O)c(-c3cc(Cl)ccc3Cl)c3sc(=O)oc3c2cc1C; label 1
COc1ccc(C(=O)Nc2cccc(C3CC(=O)c4c(cc(OC)c(OC)c4OC)O3)c2)cc1 (centres undefined); label 0
COc1ccc(OC)c(-c2c(C#N)c(-c3cccs3)nc3c2c(-c2ccccc2)nn3-c2ccccc2)c1; label 1
COc1cccc(CNc2ncnc3c2ncn3C2OC(CO)C(O)C2O)c1O (centres undefined); label 0
CCN(c1ccc(Cl)cc1)c1nc(-c2ccc([N+](=O)[O-])cc2)cs1; label 1
CS(=O)(=O)c1cccc(-c2c(-c3cccc(OS(N)(=O)=O)c3)nc3sccn23)c1; label 1
CCCCN1C(=O)/C(=c2\sc3n(c2=O)C2C(NN=3)N(CC)C(=O)N2CC)c2ccccc21 (centres undefined); label 0
